Test system: IGROV1 ovarian
Experiment: NCI-60 one-dose screen, 48 h (100 = growth as untreated, 0 = no growth, -100 = all killed)
Details: 10 µM unless noted
This is part of a sample that, as a whole, favours compounds with a hit. Of some 83,000 tested, about 20% had one in any assay.
experimental.readout: growth (%)
Write the number in % without appending the unit.

Observe how each entry below is paired with its result.
molecule: CC(=O)c1ccc(NC(=O)CSc2nnc(-c3cc(-c4ccc(C)cc4)nc4ccccc34)o2)cc1
growth / %: 57.3

molecule: CCOC(=O)NC(Cc1ccccc1)c1ccccc1 (stereo not given)
growth / %: 103

molecule: COc1ccc2oc(=O)cc(-c3nc4ccc(N)cc4[nH]3)c2c1
growth / %: 76.7

molecule: NC(=N\N=C\c1ccccc1O)/C(N)=N/N=C/c1ccccc1O
growth / %: 97.8

molecule: CCCCC(=O)Nc1c(C(=O)Nc2ccccc2)sc2nc3c(cc12)C(OC(=O)CCCC)CCC3 (stereo not given)
growth / %: 99.8

molecule: COc1ccc(OCC(=O)OC(C)C)cc1
growth / %: 103

What the record says about "CCCCn1c2cc(OCc3cn(-c4ccc(Cl)cc4)nn3)ccc2c2ccnc(C)c21" : growth is 39.3

Reported growth for "COCCOCCOCc1n(Cc2ccc3ccccc3n2)c2ccccc2[n+]1Cc1ccc2ccccc2n1" was 20.2

The reported value for "O=c1c2ccccc2oc2ccc(OCCCCCN3CCCCCC3)cc12" in terms of growth is 77.2

Sample "[2H]c1nc(Nc2ncc3cc(C(=O)N(C)C)n(C4CCCC4)c3n2)c([2H])c([2H])c1N1C([2H])([2H])C([2H])([2H])NC([2H])([2H])C1([2H])[2H]" ; growth observed: 65.8

----------
System: SF-539 CNS
Test: NCI-60 one-dose screen, 48 h
Details: 10 µM unless noted
This is part of a sample that, as a whole, favours compounds with a hit. Of some 83,000 tested, about 20% had one in any assay. Calls of active or inactive are those of the source. Rule for the calls: active = growth percent below 10; inactive = the rest.
Tick one outcome: active, inactive

Task: Hello, I am checking results. What call was entered for "COc1cc(C)ccc1Oc1nc(Nc2ccc(N3CCOCC3)cc2)ncc1N=Cc1cc(C(F)(F)F)cc(C(F)(F)F)c1" ?
Output: inactive

Task: Dear colleague, could you share the recorded outcome for "COc1cc2nc3c(=O)n(CCN(C)C)cnn3c(=O)c2cc1OC" when you have a moment?
Output: inactive

Task: Returns: the outcome recorded for "Cc1c(Br)cccc1NC(=O)c1sc2nc3c(cc2c1N)CN(Cc1ccccc1)CC3" in this assay.
Output: active

Task: What was the test verdict on "CN1CCN(S(=O)(=O)O[C@@H]2C(=O)N(c3cc4c5ccccc5ccc4c4ccccc34)[C@H]2c2ccc(F)cn2)CC1" ?
Output: inactive

Task: Look up the recorded call for "COC(=O)/C=C1\SC(=Nc2ccc(F)cc2)N(CCc2c[nH]c3ccccc23)C1=O" in this test.
Output: inactive

----------
System: U251 CNS
Experiment: NCI-60 one-dose screen, 48 h (100 = growth as untreated, 0 = no growth, -100 = all killed)
Details: 10 µM unless noted
Protocol: Growth inhibition of the U251 human tumor cell line is measured as a screen for anti-cancer activity. Cells are grown in 96 well plates and exposed to the test compound for 48 hours. Compounds are tested at a single concentration, which is 10^-5 M for most compounds. The reported endpoint is percent growth (GI% or GIPRCNT), where numbers from 0 - 100% represent growth inhibition, and numbers from -100% - 0 represent cell death. For example, a value of 40 represents 60% growth inhibition. […]
This is part of a sample that, as a whole, favours compounds with a hit. Of some 83,000 tested, about 20% had one in any assay.
Kindly return y if reported growth is no lower than 40%; return n if it is lower.

molecule: COCCOCCOCc1n(Cc2ccc3ccccc3c2)c2ccccc2[n+]1Cc1ccc2ccccc2c1
category.label: n
--
molecule: O=C1CCC23OC(c4ccccc4N12)C(O)C(O)C3O (centres undefined)
category.label: y
--
molecule: COC(=O)/C=C/c1cc(OC)c2c(c1)[C@@H](C(=O)OC)[C@H](c1ccc(OC)c(OC)c1)O2
category.label: n
--
molecule: COc1ccc(C(=O)c2cc(OC)c(C)c(OC)c2)cc1OC(=O)CCl
category.label: n
--
molecule: O=C(Nc1ccc2ncnc(Nc3cccc(C(F)(F)F)c3)c2c1)c1cccs1
category.label: n

Task: Determine whether measured growth meets or exceeds 40% for "Cc1[nH]c(N=Nc2ccccc2)nc1N=Nc1ccccc1"
Output: n

Task: Say whether "Cn1c2c(c3ccc(-c4ccn[nH]4)cc3c1=O)C(=O)c1ccccc1-2" shows growth of 40% or more.
Output: n
